Provenance of the data: PubChem BioAssay (NCI)

Here, each record is paired with measured log10 TGI data.
# System: HT29 colon
# Run Description: NCI tumour cell line growth inhibition, 48 h
Metric Name: log10 TGI (log10 of the value in µM)

>  <Compound>
COC(=O)c1cc(NC(=O)c2cc(NC(=O)Cc3c[nH]c4ccccc34)cn2C)cn1C

>  <Tgt>
HT29 colon

>  <Metric Name>
log10 TGI

>  <Value Observed>
1.75

$$$$
>  <Compound>
CC(C)CC1c2[nH]c3ccccc3c2C[C@H]2C(=O)NC(CCCCNC(=O)OC(C)(C)C)C(=O)N12 (some centres undefined)

>  <Tgt>
HT29 colon

>  <Metric Name>
log10 TGI

>  <Value Observed>
1.81

$$$$
>  <Compound>
Cc1nc(-c2cnc(NC(C)C)n(C)c2=O)ccc1Oc1ccnc(-c2cnn(C)c2)c1

>  <Tgt>
HT29 colon

>  <Metric Name>
log10 TGI

>  <Value Observed>
1.83

$$$$
>  <Compound>
O=C(Nc1ccc(-n2ccc3c(NC(=O)c4ccccc4)nccc32)cc1)Nc1cccc(C(F)(F)F)c1

>  <Tgt>
HT29 colon

>  <Metric Name>
log10 TGI

>  <Value Observed>
0.69

$$$$
>  <Compound>
COc1cc(/C=C/C(=O)/C=C/c2cc3ccc(Cl)cc3n(Cc3ccccc3)c2=O)ccc1O

>  <Tgt>
HT29 colon

>  <Metric Name>
log10 TGI

>  <Value Observed>
0.23

$$$$
>  <Compound>
COc1cc(C2C(C(=O)Nc3ccc([N+](=O)[O-])cc3)=C(C)NC(C)=C2C(=O)Nc2ccc([N+](=O)[O-])cc2)ccc1O

>  <Tgt>
HT29 colon

>  <Metric Name>
log10 TGI

>  <Value Observed>
1.58

$$$$
>  <Compound>
C=C1C(=O)O[C@H]2[C@H]1CC/C(Cn1cc(-c3cccc(Cl)c3)nn1)=C\CC[C@@]1(C)O[C@@H]21

>  <Tgt>
HT29 colon

>  <Metric Name>
log10 TGI

>  <Value Observed>
0.24

$$$$
>  <Compound>
CCN(CC)CCC(CNc1ccnc2cc(Cl)ccc12)c1ccccc1 (centres undefined)

>  <Tgt>
HT29 colon

>  <Metric Name>
log10 TGI

>  <Value Observed>
1.02

$$$$
>  <Compound>
C/C(=N/O)c1ccc2c(c1)/C(=N/O)c1ccccc1-2

>  <Tgt>
HT29 colon

>  <Metric Name>
log10 TGI

>  <Value Observed>
1.61

$$$$
